Entries and their inhibition
Biological target: Acetylcholinesterase (Electrophorus electricus) (UniProt O42275)
Sequence (O42275 24-633 limits assumed): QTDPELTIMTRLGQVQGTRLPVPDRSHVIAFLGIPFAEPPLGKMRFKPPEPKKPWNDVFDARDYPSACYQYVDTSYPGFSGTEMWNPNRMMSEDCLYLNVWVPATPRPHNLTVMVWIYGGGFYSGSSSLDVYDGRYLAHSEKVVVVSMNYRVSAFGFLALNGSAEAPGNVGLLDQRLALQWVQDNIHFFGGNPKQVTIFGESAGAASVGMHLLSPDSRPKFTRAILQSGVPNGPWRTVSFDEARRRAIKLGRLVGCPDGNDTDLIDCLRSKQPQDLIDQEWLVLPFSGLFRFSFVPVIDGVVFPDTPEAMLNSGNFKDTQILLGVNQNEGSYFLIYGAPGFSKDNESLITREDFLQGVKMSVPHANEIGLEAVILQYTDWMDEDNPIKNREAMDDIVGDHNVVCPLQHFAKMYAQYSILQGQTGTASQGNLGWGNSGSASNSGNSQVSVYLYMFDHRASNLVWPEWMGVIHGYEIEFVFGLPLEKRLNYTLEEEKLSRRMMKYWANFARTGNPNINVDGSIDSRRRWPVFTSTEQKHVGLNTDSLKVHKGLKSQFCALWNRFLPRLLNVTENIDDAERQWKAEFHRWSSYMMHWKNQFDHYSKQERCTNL
Settings: at 2 mg/mL
Description: Inhibition of electric eel AChE at 2 mg/ml by Ellman's method

| Line notation | inhibition (%) |
| --- | --- |
| CCCCCCCCCCCCC/C=C/[C@@H](O)[C@H](CO)NC(=O)CCCCC | 9.07 |
| C[C@@H]1O[C@@H](O[C@H]2[C@H](Oc3cc(O)c4c(c3)O[C@H](c3ccc(O)cc3)CC4=O)O[C@H](CO)[C@@H](O)[C@@H]2O)[C@H](O)[C@H](O)[C@H]1O | -3.38 |
| CCN1C[C@]2(OC(=O)c3ccccc3NC(C)=O)CC[C@H](OC)[C@@]34[C@@H]2C[C@@H]([C@@H]13)[C@@]1(O)C[C@H](OC)[C@H]2C[C@@H]4[C@]1(O)[C@H]2OC | 1.48 |
| CC(=O)c1c(O)c(C)c(O)c(Cc2c(O)c3c(c(C(=O)/C=C/c4ccccc4)c2O)OC(C)(C)C=C3)c1O | 15.8 |
| CCCCC[C@H](O)/C=C/[C@H]1[C@H](O)CC(=O)[C@@H]1C/C=C\CCCC(=O)O | 14.8 |
| COC(=O)[C@H]1[C@H]2C[C@H]3c4[nH]c5ccccc5c4CCN3C[C@@H]2CC[C@@H]1O | 15.8 |
| C=C[C@H]1CN2CC[C@H]1C[C@@H]2[C@@H](O)c1ccnc2ccccc12 | 5.94 |

Data origin, for the record: ChEMBL document CHEMBL2163249
